# System: vancomycin-resistant Enterococcus (VRE)
# ASSAY_REMARKS: agar dilution method, inhibitory effect on VRE
# Type: cell-based
# TEST_SETTINGS: Enterococcus, read-out: Minimum inhibitory concentration (MIC50, μg/ml) VRE
# Text: In order to determine the antibacterial activity of these new oxazolidinone-based compounds, an agar dilution method was used to test the inhibitory effect on methicillin-resistant Staphylococcus aureus (MRSA) and vancomycin-resistant Enterococcus (VRE). The bacteria inhibition effect was expressed as minimum inhibitory concentration (MIC50, μg/ml) The test results are shown in the following table.
MEASURED_PROPERTY: MIC50 (µg/mL)

Some compounds with known MIC50 results, for comparison:
INSERT INTO measurements (compound, number) VALUES
  ('C=Cn1nnc(-c2ccc(-c3ccc(N4C[C@H](C(O)C5CC5)OC4=O)cc3F)cn2)n1.O=P(O)(O)O (stereo partly shown) [compound 155]', 0.5),
  ('Cn1nnc(-c2ccc(-c3ccc(N4C[C@H](C(O)CF)OC4=O)cc3F)cn2)n1.O=P(O)(O)O (stereo partly shown) [compound 129]', 0.3),
  ('CCn1nnc(-c2ccc(-c3ccc(N4C[C@@H](C(O)C5CC5)OC4=O)cc3F)cn2)n1.O=P(O)(O)O (stereo partly shown) [compound 138]', 1),
  ('C=Cn1nnc(-c2ccc(-c3ccc(N4C[C@@H](CO)OC4=O)cc3F)cn2)n1.O=P(O)(O)O [compound 86]', 0.3),
  ('Cn1nnc(-c2ccc(-c3ccc(N4C[C@@H](C(O)C5CC5)OC4=O)cc3F)cn2)n1.O=P(O)(O)O (stereo partly shown) [compound 132]', 0.3);

[I] CCCn1nnc(-c2ccc(-c3ccc(N4C[C@@H](C(O)C5CC5)OC4=O)cc3F)cn2)n1.O=P(O)(O)O (stereo partly shown) [compound 144]
[II] CCCn1nnc(-c2ccc(-c3ccc(N4C[C@@H](CO)OC4=O)cc3F)cn2)n1.O=P(O)(O)O [compound 82]
Problem: Compare reported MIC50 values for I and II . Which is lower? Provide the label of your selected option as the answer.
Result: I
(I: 0.4 µg/mL, II: 1.2 µg/mL)

Data origin, for the record: patent US12173020B2
